Assay: HUVEC growth inhibition – cell-based, human, primary screen (AID 575);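 note: 100% = median of untreated cell wells with 0.1% DMSO on each plate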
Details: HUVEC proliferation, CellTiter-Glo luminescence, 72 h; at 10 µM; stronger effect = lower value
observable: viability (%)

[[record]]
compound = "CCN(CCCNC(=O)C1CCCN(S(=O)(=O)c2cnc[nH]2)C1)c1ccccc1 (stereo unspecified)"
readout_number = 104

[[record]]
compound = "CCOC(=O)Cn1c2c(c(=N)c3ccccc31)CCC2"
readout_number = 89.4

[[record]]
compound = "CCOc1cc(C2C(C#N)=C(N)OC(C)=C2C(C)=O)cc(Br)c1O (stereo unspecified)"
readout_number = 120

[[record]]
compound = "Cc1nc(=S)n(-c2ccccc2)[nH]1"
readout_number = 107

[[record]]
compound = "O=C(CSc1n[nH]c(-c2cccs2)n1)N1CCN(S(=O)(=O)c2ccccc2)CC1"
readout_number = 97.4

[[record]]
compound = "CCOC(=O)C1=C(C)Nc2ncnn2C1c1ccccc1F (stereo unspecified)"
readout_number = 116

[[record]]
compound = "COc1cc(NC(=O)NC(C)(C(F)(F)F)C(F)(F)F)cc(OC)c1OC"
readout_number = 91.1

[[record]]
compound = "CCNc1nc(NCC)n2c(SCc3nc4ccccc4c(=O)[nH]3)nnc2n1"
readout_number = 106

[[record]]
compound = "CCOc1ccccc1NC(=O)N1CCCC1C(=O)Nc1nnc(CC)s1 (stereo unspecified)"
readout_number = 89.7

[[record]]
compound = "COc1ccc(OC)c(S(=O)(=O)N2CCC(C(=O)NCC3CCCO3)CC2)c1 (stereo unspecified)"
readout_number = 106

[[record]]
compound = "CC(C)C(OC(=O)c1ccco1)C(=O)NCc1ccccc1 (stereo unspecified)"
readout_number = 92.5

[[record]]
compound = "Fc1ccc(NCc2nnc(SCc3nnc(-c4ccccc4)o3)n2CC2CCCO2)cc1 (stereo unspecified)"
readout_number = 97.8

[[record]]
compound = "CCN(CC)c1ccc(/C=N/n2nnnc2N)c(O)c1"
readout_number = 57.6

[[record]]
compound = "C=CCOC(=O)CCC(=O)Nc1cc(OC)nc(OC)n1"
readout_number = 92.1

[[record]]
compound = "COc1ccc(N=c2scc(-c3ccc(S(=O)(=O)N4CCOCC4)cc3)n2CCCO)cc1"
readout_number = 96.4

[[record]]
compound = "COC(=O)c1ccc(NC(=O)CN2CCN(c3ccc(Cl)cc3)CC2)cc1"
readout_number = 104

[[record]]
compound = "CCOC(=O)C1CCCN(CCCc2ccccc2)C1 (stereo unspecified)"
readout_number = 105

[[record]]
compound = "CCNC(=O)CC(=O)Nc1ccccc1C(=O)O"
readout_number = 125

[[record]]
compound = "COc1ccc2c(c1OC)C(=O)OC2Nn1cncn1 (stereo unspecified)"
readout_number = 109

[[record]]
compound = "CCN(c1ccc(OC)cc1)S(=O)(=O)c1ccc2c(c1)CCN2C(=O)CCC(=O)O"
readout_number = 88.9

[[record]]
compound = "CCCC(c1nnnn1Cc1ccc(OC)cc1)N1CCN(c2ccccc2OC)CC1 (stereo unspecified)"
readout_number = 92.4

[[record]]
compound = "COc1ccc(C(CC(=O)O)NC(=O)c2ccccc2)cc1OC (stereo unspecified)"
readout_number = 94.6

[[record]]
compound = "C=CCn1c(N)c(C(=O)NCCC2=CCCCC2)sc1=S"
readout_number = 44.6

[[record]]
compound = "O=C(NCc1cccs1)c1cc2c(s1)CCCC2"
readout_number = 85.8

[[record]]
compound = "Cn1c(=O)c2c([nH]c(=O)n2C)n(C)c1=O"
readout_number = 88.7

[[record]]
compound = "Cc1ccc(S(=O)(=O)NCCCCC(NC(=O)OC(C)(C)C)C(=O)O)cc1 (stereo unspecified) (tested in a mixture with another compound)"
readout_number = 125

[[record]]
compound = "CCOC(=O)N1CCN(c2c(NCC3CCN(Cc4cccc(C)c4)CC3)c(=O)c2=O)CC1"
readout_number = 81.7

[[record]]
compound = "CCOC(=O)CNC(=O)CSc1ncnc2c1cnn2-c1ccccc1"
readout_number = 97.4

[[record]]
compound = "C=CCNC(=O)c1cccc(Br)c1"
readout_number = 89.4

[[record]]
compound = "COc1ccc(C(=O)OCC(=O)NCc2ccco2)cc1OC"
readout_number = 102

[[record]]
compound = "Cc1ccc(-n2c(Cn3cnc4ccccc43)nnc2SCC(=O)O)cc1"
readout_number = 94.3

[[record]]
compound = "CCC(C)(C)n1nnnc1C(c1ccncc1)N1CCN(c2cccc(OC)c2)CC1 (stereo unspecified)"
readout_number = 91.9

[[record]]
compound = "CCOC(=O)Cn1c(N2CCOCC2)nc2c1c(=O)[nH]c(=O)n2C"
readout_number = 89.7

[[record]]
compound = "CCOc1cc(S(=O)(=O)NCc2ccccn2)c(C)cc1C"
readout_number = 96.8

[[record]]
compound = "c1ccc(-n2cnc3cc(NCc4ccccn4)ccc32)cc1"
readout_number = 102

[[record]]
compound = "CCOc1ccc(NCCC(=O)c2ccc3c(c2)OCO3)cc1"
readout_number = 75.7

[[record]]
compound = "CC1(C)CNC(=O)CC(C)(C)N1O"
readout_number = 101

[[record]]
compound = "Cc1cc(C(=O)OCCO)c(C#N)c(N)n1"
readout_number = 95.9

[[record]]
compound = "Cc1nc2ncnn2c(Nc2ccc3c(c2)OCCO3)c1C"
readout_number = 106

[[record]]
compound = "COC(=O)c1[nH]c2ccccc2c1NC(=O)CN1CCC(C(N)=O)(N2CCCCC2)CC1"
readout_number = 101

[[record]]
compound = "Nn1c(SCC(=O)Nc2ccc(F)cc2)nnc1-c1cccnc1"
readout_number = 95.1

[[record]]
compound = "O=C(CSc1nc2[nH]ncc2c(=O)n1-c1ccccc1Br)NCc1ccco1"
readout_number = 95

[[record]]
compound = "COc1ccc(NC(=O)Nc2cc(C)ccc2OC)cc1"
readout_number = 96.1

[[record]]
compound = "COc1ccc(-c2ccc(Nc3ccc(S(=O)(=O)N4CCCC4)cc3)nn2)cc1OC"
readout_number = 61.6

[[record]]
compound = "CCOCCCn1c(=S)[nH]c2cc3c(cc2c1=O)OCO3"
readout_number = 96.3

[[record]]
compound = "CNC(=O)CN(C#N)c1nc(N(C)C)nc(N(C)C)n1"
readout_number = 98.5

